# assayed.system: Sterol O-acyltransferase 1 (Rattus norvegicus, UniProt O70536)
# Sequence (O70536 whole entry): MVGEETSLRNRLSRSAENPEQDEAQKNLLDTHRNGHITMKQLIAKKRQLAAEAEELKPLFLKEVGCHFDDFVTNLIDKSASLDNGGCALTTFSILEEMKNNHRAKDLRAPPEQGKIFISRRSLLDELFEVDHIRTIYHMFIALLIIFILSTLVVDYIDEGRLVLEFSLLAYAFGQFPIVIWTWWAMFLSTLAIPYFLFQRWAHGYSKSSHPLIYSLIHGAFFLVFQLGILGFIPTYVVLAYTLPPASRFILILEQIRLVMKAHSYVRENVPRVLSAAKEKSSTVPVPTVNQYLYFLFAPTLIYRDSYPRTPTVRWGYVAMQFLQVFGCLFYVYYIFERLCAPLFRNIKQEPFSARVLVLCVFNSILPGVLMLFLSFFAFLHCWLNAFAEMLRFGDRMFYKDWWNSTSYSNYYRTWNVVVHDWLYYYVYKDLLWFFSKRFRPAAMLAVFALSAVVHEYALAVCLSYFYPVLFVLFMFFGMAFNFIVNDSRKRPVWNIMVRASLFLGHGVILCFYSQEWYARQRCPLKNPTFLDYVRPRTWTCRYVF
We begin with IC50 values for Sterol O-acyltransferase 1 (Rattus norvegicus, UniProt O70536), as collected from the published literature.
Could you give me the number in nM? Just the number is fine.

molecule | property | value.measured
Cn1ccnc1S(=O)(=O)CCCSc1nc(-c2ccccc2)c(-c2ccccc2)[nH]1 | IC50 | 11
c1ccc(-c2nc(SCCCCCn3cccn3)[nH]c2-c2ccccc2)cc1 | IC50 | 24
CC(C)c1cc(C(C)C)c(NC(=O)NS(=O)(=O)Oc2c(C(C)C)cccc2C(C)C)c(C(C)C)c1 | IC50 | 23000

Ask: Given the molecule CCCCCCCS(=O)(=O)c1cc(-c2ccccc2)c(-c2ccccc2)nn1 , what is its reported IC50?
Result: 49000

Ask: Repeat for the following molecule: CC(C)c1cccc(C(C)C)c1NC(=O)NCCCCCSc1nc(-c2ccccc2)c(-c2ccccc2)[nH]1
Result: 510

Ask: What about CC(=O)Nc1ccc(CC(NC(=O)C(c2ccccc2)c2ccccc2)c2ccccc2)cc1 (centres undefined) ?
Result: 350

Ask: And for CCCCCCCN(CCCCCSc1nc(-c2ccccc2)c(-c2ccccc2)[nH]1)C(=O)c1ccc(F)cc1F ?
Result: 60

Ask: Input CC(C)CC(C)N1Cc2c(n(CC(=O)c3ccccc3)c3cc(-c4ccccc4)nn3c2=O)C1=O (centres undefined)
Result: 6400

Ask: Then this molecule: Cc1cc(C)n(CCCC[C@H]2CO[C@@H](c3nc(-c4ccccc4)c(-c4ccccc4)[nH]3)OC2)n1
Result: 75

Ask: # repeat for CCCCCCC(C)OS(=O)(=O)NC(=O)Nc1c(C(C)C)cccc1C(C)C (centres undefined)
Result: 35000

Ask: Next up: CCCCCCCCCCCCCCCCCCN(C)S(=O)(=O)NC(=O)Nc1c(C(C)C)cccc1C(C)C
Result: 1900
